The reported numbers originate from ChEMBL document CHEMBL5346877.

System: CWR22R
Experiment: Cytotoxicity against human 22Rv1 cells assessed as cell viability at 20 uM incubated for 72 hrs by resazurin dye based microplate reader assay
Assay type: functional
Settings: read-out: Activity
The entries below are paired with their reported viability at 20 µM.
Provide the reading as a plain figure in %.

Worked set:
# Item Smiles, Display Unit, Val
rows = [
    ("C[C@]12Cc3cnn(-c4ccc(Cl)cc4)c3C[C@@H]1CC[C@@H]1[C@@H]2CC[C@]2(C)[C@@H](O)CC[C@@H]12", "%", 80),
    ("Cn1nc2c(c1-c1ccc(Cl)cc1)C[C@@]1(C)[C@@H](CC[C@@H]3[C@@H]1CC[C@]1(C)C(=O)CC[C@@H]31)C2", "%", 61),
    ("COc1ccc(-n2ncc3c2C[C@@H]2CC[C@@H]4[C@H](CC[C@]5(C)[C@@H](O)CC[C@@H]45)[C@@]2(C)C3)cc1", "%", 75),
]

Indicate the recorded viability at 20 µM value for this compound: `C[C@]12Cc3c(nn(-c4ccccc4)c3-c3ccc(Cl)cc3)C[C@@H]1CC[C@@H]1[C@@H]2CC[C@]2(C)C(=O)CC[C@@H]12`
93

Indicate the recorded viability at 20 µM value for this compound: `COc1ccc(-c2c3c(nn2C)C[C@@H]2CC[C@@H]4[C@H](CC[C@]5(C)[C@@H](O)CC[C@@H]45)[C@@]2(C)C3)cc1`
33

Indicate the recorded viability at 20 µM value for this compound: `Cc1ccc(-c2c3c(nn2C)C[C@@H]2CC[C@@H]4[C@H](CC[C@]5(C)[C@@H](O)CC[C@@H]45)[C@@]2(C)C3)cc1`
36

* * *

System: CWR22R
Assay: Cytotoxicity against human 22Rv1 cells assessed as cell viability at 20 uM incubated for 72 hrs by resazurin dye based microplate reader assay
Type: functional
Conditions: read-out: Activity
Parameter Measured: viability at 20 µM

# Item Smiles, viability at 20 µM
rows = [
    ("C[C@]12Cc3cn(-c4ccc(F)cc4)nc3C[C@@H]1CC[C@@H]1[C@@H]2CC[C@]2(C)[C@@H](O)CC[C@@H]12", "≥ 100%"),
    ("Cc1c2c(nn1-c1ccccc1)C[C@@H]1CC[C@@H]3[C@H](CC[C@]4(C)[C@@H](O)CC[C@@H]34)[C@@]1(C)C2", "24%"),
]

Let's switch to this molecule now.
Indicate the recorded viability at 20 µM value for this molecule: `Cn1nc2c(c1-c1ccc(F)cc1)C[C@@]1(C)[C@@H](CC[C@@H]3[C@@H]1CC[C@]1(C)C(=O)CC[C@@H]31)C2`
57%

* * *

System: LAPC4
Assay: Inhibition of colony formation in human LAPC4 cells at 10 uM incubated for 10 days by crystal violet staining based assay
Assay type: functional
Settings: LAPC4, 240 h, time 10 day
Parameter Measured: inhibition at 10 µM (%)
Provide the reading as a plain figure in %.

Worked set:
# Item Smiles, inhibition at 10 µM / %
records = [
    ("C[C@]12Cc3c(nn(-c4ccccc4)c3-c3ccccc3)C[C@@H]1CC[C@@H]1[C@@H]2CC[C@]2(C)C(=O)CC[C@@H]12", 19),
    ("Cn1nc2c(c1-c1ccc(Br)cc1)C[C@@]1(C)[C@@H](CC[C@@H]3[C@@H]1CC[C@]1(C)[C@@H](O)CC[C@@H]31)C2", 16),
    ("Cn1nc2c(c1-c1cccs1)C[C@@]1(C)[C@@H](CC[C@@H]3[C@@H]1CC[C@]1(C)[C@@H](O)CC[C@@H]31)C2", 1),
]

Let's switch to this compound now.
Indicate the recorded inhibition at 10 µM value for this compound: `COc1ccc(-c2c3c(nn2C)C[C@@H]2CC[C@@H]4[C@H](CC[C@]5(C)[C@@H](O)CC[C@@H]45)[C@@]2(C)C3)cc1`
5
